Target: CB1 receptors (Homo sapiens)
Sequence (P21554 whole entry): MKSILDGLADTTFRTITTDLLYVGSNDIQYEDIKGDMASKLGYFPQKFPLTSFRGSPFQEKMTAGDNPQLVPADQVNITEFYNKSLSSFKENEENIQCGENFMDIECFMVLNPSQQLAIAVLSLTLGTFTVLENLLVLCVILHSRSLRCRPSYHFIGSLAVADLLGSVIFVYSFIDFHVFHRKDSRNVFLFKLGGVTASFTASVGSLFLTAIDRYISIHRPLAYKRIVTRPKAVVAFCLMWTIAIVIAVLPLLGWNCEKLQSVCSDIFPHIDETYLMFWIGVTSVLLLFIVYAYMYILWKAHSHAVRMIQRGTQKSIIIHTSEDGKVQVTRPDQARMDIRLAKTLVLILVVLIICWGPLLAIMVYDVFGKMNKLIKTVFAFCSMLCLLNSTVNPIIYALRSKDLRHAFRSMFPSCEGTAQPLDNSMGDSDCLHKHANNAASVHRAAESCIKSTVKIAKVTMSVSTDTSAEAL
Assay: Binding to CB1 receptors
MEASURED_PROPERTY: pKi
Scale: negative log10 of molar concentration, which is what pKi denotes.

Please report the recorded pKi for CCCCC/C=C\C/C=C\C/C=C\C/C=C\CCCC(=O)Nc1ccc(O)cc1 [AM404, N-(4-hydroxyphenyl)-arachidonamide] . 5.74

###

Tested on: anandamide transporter
Test: [3H]anandamide transport assay, inhibition in astrocytoma cells
Conditions: read-out: IC50, [3H]anandamide accumulation; human astrocytoma cells
MEASURED_PROPERTY: IC50
Just so you know, I need the unit written after the number.

Under anandamide transporter: IC50 value of CCCCC/C=C\C/C=C\C/C=C\C/C=C\CCCC(=O)Nc1ccc(O)cc1 [AM404, N-(4-hydroxyphenyl)-arachidonamide] ? 2.2 µM

Continuing:
Provide the documented IC50 with anandamide transporter as the system for CCCCC/C=C\C/C=C\C/C=C\C/C=C\CCCC(=O)Nc1cccc(O)c1 [AM403, N-(3-hydroxyphenyl)-arachidonamide] 21.3 µM
